Provenance of the data: PubChem BioAssay (Tox21)

# experiment_notes: p53 small molecule agonists, cell-based qHTS assay with human liver microsomes: qHTS cell viability counter screen (AID 1963579); also: nearly all actives have a fitted effect of over 45% in size
# run_parameters: p53RE-bla HCT-116 viability, ATP luminescence, 16 h, HLM; series mostly up to 66 µM
Inconclusive results are not listed. Active and inactive are the calls of the source. Calls follow the shape of the full dose curve.
Returns: one label drawn from active, inactive

Previously resolved entries follow.
# molecule, label_value
records = [
    ("[O-][N+](=Nc1ccccc1)c1ccccc1", "inactive"),
    ("CC(C)C[C@H](NC(=O)[C@H](Cc1ccccc1)NC(=O)c1cnccn1)B(O)O", "active"),
]

Challenge: Tell me the recorded outcome of this test for `C[C@H](CCC(=O)O)[C@H]1CC[C@H]2[C@@H]3[C@H](O)C[C@@H]4C[C@H](O)CC[C@]4(C)[C@H]3CC[C@]12C` .
Response given: inactive

Challenge: Tell me the recorded outcome of this test for `O=C1NCCN1` .
Response given: inactive

Challenge: Tell me the recorded outcome of this test for `CC(C)COC(=O)C(C)C` .
Response given: inactive
